These data points were gathered from patent US20150111251A1.

Overview of recorded Kd for various binders
tgt: T1, Recombinant Human TNF-α/TNFSF1A (human, UniProt P01375 77-233)
T1 construct: also called hTNF-α; huTNFα
assayProcedure: SPR (BIACORE), antibody captured, TNFα in solution
Provide only the numeric value, understood in nM.

Worked examples follow.
AB360 (antibody, V domains shown, Full-length humanized antibody made in HEK 293-6E; also called hMAK199VH.1a/hMAK199VL.2) VH: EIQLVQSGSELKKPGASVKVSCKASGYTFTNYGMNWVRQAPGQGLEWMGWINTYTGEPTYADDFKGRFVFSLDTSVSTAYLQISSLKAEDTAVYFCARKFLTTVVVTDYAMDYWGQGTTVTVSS VL: DVVMTQSPAFLSVTPGEKVTITCRASQDISNYLNWYQQKPDQAPKLLIKYTSRLQSGVPSRFSGSGSGTDFTFTISSLEAEDAATYYCQQGNTLPPTFGQGTKLEIK ... 0.78
AB362 (antibody, V domains shown, Full-length humanized antibody made in HEK 293-6E; also called hMAK199VH.1a/hMAK199VL.2b) VH: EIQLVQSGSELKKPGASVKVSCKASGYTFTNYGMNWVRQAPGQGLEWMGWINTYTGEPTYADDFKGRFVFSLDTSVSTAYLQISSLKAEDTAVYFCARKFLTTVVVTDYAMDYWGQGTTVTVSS VL: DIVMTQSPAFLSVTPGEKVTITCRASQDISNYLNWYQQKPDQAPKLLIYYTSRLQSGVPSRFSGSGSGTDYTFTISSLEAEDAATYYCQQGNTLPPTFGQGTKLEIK ... 0.83
AB367 (antibody, V domains shown, Full-length humanized antibody made in HEK 293-6E; also called hMAK199VH.1b/hMAK199VL.2a) VH: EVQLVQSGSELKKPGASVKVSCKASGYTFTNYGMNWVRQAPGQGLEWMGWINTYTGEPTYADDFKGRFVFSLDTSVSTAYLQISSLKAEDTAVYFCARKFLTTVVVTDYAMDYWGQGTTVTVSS VL: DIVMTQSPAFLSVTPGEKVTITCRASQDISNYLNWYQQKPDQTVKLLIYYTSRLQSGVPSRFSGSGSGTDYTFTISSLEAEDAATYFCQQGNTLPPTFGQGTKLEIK ... 1
AB377 (antibody, V domains shown, Full-length humanized antibody made in HEK 293-6E; also called hMAK199VH.2a/hMAK199VL.1b) VH: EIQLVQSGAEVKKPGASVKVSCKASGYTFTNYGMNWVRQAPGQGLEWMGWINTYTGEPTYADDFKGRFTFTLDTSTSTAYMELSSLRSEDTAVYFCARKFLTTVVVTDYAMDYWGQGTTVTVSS VL: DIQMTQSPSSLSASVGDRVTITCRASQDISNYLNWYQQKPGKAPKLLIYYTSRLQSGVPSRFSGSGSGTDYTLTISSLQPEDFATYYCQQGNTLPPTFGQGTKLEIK ... 1.4

Read the next record carefully.
Recorded Kd for AB373 (antibody, V domains shown, Full-length humanized antibody made in HEK 293-6E; also called hMAK199VH.2/hMAK199VL.2a) VH: EVQLVQSGAEVKKPGASVKVSCKASGYTFTNYGMNWVRQAPGQGLEWMGWINTYTGEPTYADDFKGRVTMTTDTSTSTAYMELSSLRSEDTAVYYCARKFLTTVVVTDYAMDYWGQGTTVTVSS VL: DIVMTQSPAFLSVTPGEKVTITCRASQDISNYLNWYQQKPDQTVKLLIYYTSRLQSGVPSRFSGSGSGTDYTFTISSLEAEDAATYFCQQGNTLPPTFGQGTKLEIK , please?
1.2
